system: CCRF-CEM leukemia; test: NCI-60 one-dose screen, 48 h; conditions: 10 µM unless noted
The panel holds about 83,000 compounds, 20% with a hit somewhere; the sample as a whole holds those more often. Active and inactive are the calls of the source. How the source made its calls: active means growth percent below 10; inactive means the rest.
Pick from 1 (active), 0 (inactive) when you respond.

Here's what some known entries look like.
N#Cc1ccc(NC(=O)c2ccc3cccnc3c2O)cc1; 0
COc1ccc(NC(=O)CSc2nc3ccc(Cl)cc3c(=O)n2-c2ccccc2C(F)(F)F)c(OC)c1OC; 0
COc1ccc(C2NC3=C(CCCC3)C(C#N)(C#N)C2(C#N)C#N)cc1 (stereo not given); 1
CCc1cccc(C)c1NC(=O)c1sc2nc3c(cc2c1N)C(=O)CCC3; 1

Now examine the next entry.
Query :: What call does the record list for COC1=CC(c2ccc[nH]2)=N/C1=C\c1[nH]c(C)c(C(=O)CCCCC(=O)Oc2ccc3c(c2)CCC2C3CC[C@]3(C)[C@@H](O)CC[C@@H]23)c1C (stereo not given in full) ?
Result :: 0

====

test system: A549/ATCC NSCLC; assay: NCI-60 one-dose screen, 48 h (100 = growth as untreated, 0 = no growth, -100 = all killed); conditions: 10 µM unless noted
Compounds without any hit were thinned out: in the full panel of roughly 83,000, 20% have a hit.
Returns one of TRUE or FALSE; TRUE when growth is >= 80%.

Answered examples (6):
COc1ccc(OC)c(-c2ccc(-c3ccccc3N)c3[nH]c4ccccc4c23)c1; FALSE
CC1(C)OC2COC3(C(=O)O)OC(C)(C)OC3C2O1 (stereo not given); TRUE
CCOC(=O)C(Cc1ccccc1)n1c(O)c(C=Nc2ccc(C(=O)OCCN(CC)CC)cc2)sc1=O (stereo not given); FALSE
CCOC(=O)C1=C(CSC(=S)N(C2CCCCC2)C2CCCCC2)N(C)C(=O)NC1c1ccccc1 (stereo not given); FALSE
Nc1c(C(=O)Nc2ccccc2)sc2nc3c(cc12)CCC3; TRUE
O=C(Cc1n[nH]c(=O)c2ccccc12)OCc1c(Cl)cccc1Cl; TRUE

Query :: Is growth for `CSc1ccccc1C#C/C=C\C#Cc1ccccc1N1CCCCC1=O` at or above 80%?
Result :: FALSE

Query :: Please check the record `O=C(N/N=C/c1c(Cl)cccc1Cl)c1ccccc1Nc1ccnc(C(F)(F)F)c1` and state if its growth is at or above 80%.
Result :: FALSE

====

test system: NCI/ADR-RES ovarian; assay: NCI-60 one-dose screen, 48 h (100 = growth as untreated, 0 = no growth, -100 = all killed); settings: 10 µM unless noted
Compounds without any hit were thinned out: in the full panel of roughly 83,000, 20% have a hit.
Quantity Measured: growth (%)
# output: bare number, implied unit %

Here's what some known entries look like.
N#CC1=C(N)n2nc(-c3ccncc3)nc2NC1c1cccc2ccccc12 (centres undefined); 91.9
CCOC(=O)C(Cc1ccccc1)n1c(O)c(C=Nc2ccc(C(=O)OCCN(CC)CC)cc2)sc1=O (centres undefined); 107
COC(=O)c1cc(-c2cccs2)c(C#N)c(N)c1C#N; 106
COc1ccc(Cn2c(SC)nc(=O)n(Cc3ccc(Cl)cc3)c2=O)cc1; 95.4
Cc1nc(Nc2cccnc2)sc1C(=O)/C=C/c1ccc(F)cc1; 38.4

Alright, here's another molecule for you.
Query :: Check the records and state growth for CCN(CC)CCCC(C)N=c1cc(Nc2cc(=NC(C)CCCN(CC)CC)c3cc(OC)ccc3o2)oc2ccc(OC)cc12 (centres undefined)
Result :: 3.48

====

test system: HCT-15 colon; test: NCI-60 one-dose screen, 48 h; settings: 10 µM unless noted
The panel holds about 83,000 compounds, 20% with a hit somewhere; the sample as a whole holds those more often. Active and inactive are the calls of the source. The calls were made as follows: active = growth percent below 10; inactive = the rest.
Your response should consist of one outcome taken from T (active), F (inactive)

COc1cc(C2C=C(C)N=C3SC=CN32)cc(OC)c1OC (configuration not stated); F
CC(C)(C)c1cn2cccc(C(=O)N3CCN(CC(=O)Nc4ccc(Cl)cc4C(=O)c4ccccc4Cl)CC3)c2n1; F
COc1cc(/C=C2\C=C(c3ccc(F)cc3)N(Cc3ccccc3)C2=O)cc(OC)c1OC; F
CCC1=C[C@@H]2CN(C1)Cc1c([nH]c3ccccc13)[C@@](C(=O)OC)(c1cc3c(cc1OC)N(C=O)[C@H]1[C@@](O)(C(=O)OC)[C@H](OC(C)=O)[C@]4(CC)[C@@H]5C[C@@H]5CN5CC[C@]31[C@@H]54)C2; F
COc1ccc(/C=C\c2cc(OC)c(OC)c(OC)c2)c(NS(=O)(=O)c2ccc(C(C)(C)C)cc2)c1O; F
COc1ccc(NC(=O)CSc2nc3ccc(Cl)cc3c(=O)n2-c2ccccc2C(F)(F)F)c(OC)c1OC; F
COc1cc(Cn2c(SCC(=O)Nc3ccc(Cl)cc3)nc3ccccc3c2=O)cc(OC)c1OC; F
C=CCn1c(C)nc2ccc(Nc3nc(Nc4ccc(F)cc4)nc4ccccc34)cc21; F

Query :: Please let me know the test result on file for `O=C(CNC(=O)c1cccc2ccccc12)Nc1ccccc1Oc1ccccc1` .
Result :: T

Query :: Can you look up the reported call for `O=c1oc2cc(OS(=O)(=O)c3ccc(F)cc3)ccc2c2c1CCCCC2` for me?
Result :: F

Query :: Please share the test call associated with `C=C1C(=O)O[C@H]2[C@H]1CC/C(COC(=O)NCCc1ccc(Br)cc1)=C\CC[C@@]1(C)O[C@@H]21` .
Result :: T

Query :: Per the records of this test, what outcome belongs to `COc1cc(C(=O)N2CCN(C(=O)c3ccco3)CC2)c(N)cc1OCc1ccccc1` ?
Result :: F

Query :: Lab log entry: CCOC(=O)c1ccccc1NC(c1ccccc1)c1ccc2cccnc2c1O (configuration not stated) — outcome as called in the assay?
Result :: F

Query :: Recorded test call requested for `CSc1ccccc1C#C/C=C\C#Cc1ccccc1N1CCCCC1=O`
Result :: F

Query :: Tell me the assay call for `COc1ccc(-c2nnc(COc3ccc(NS(=O)(=O)c4ccc(OC)cc4)cc3F)o2)cc1` please.
Result :: F

====

system: A549/ATCC NSCLC; experiment: NCI-60 one-dose screen, 48 h (100 = growth as untreated, 0 = no growth, -100 = all killed); conditions: 10 µM unless noted
The panel holds about 83,000 compounds, 20% with a hit somewhere; the sample as a whole holds those more often.
Quantity Measured: growth (%)
Report only the number, with the unit % understood.

Answered cases to consult:
COc1ccc(/C=C/C(=O)/C=C/c2cc3ccc(Cl)cc3[nH]c2=O)cc1; 93.1
O=Nc1c(-c2c(O)[nH]c3ccc([N+](=O)[O-])cc23)[nH]c2ccc(O)cc12; 10.6
COc1cc(Cn2c(SCC(=O)Nc3ccc(Cl)cc3)nc3ccccc3c2=O)cc(OC)c1OC; 64.9

Query :: Query growth for `O=S(=O)(NCCCNc1cc(-c2cn(-c3ccccc3)nc2-c2cccc(O)c2)ccn1)c1cccc2ccccc12`
Result :: 35.8

Query :: Answer with reported growth of `CCOc1ccc(/C=C/C=N/NC(N)=S)cc1`
Result :: 86.1

====

test system: T-47D breast; test: NCI-60 one-dose screen, 48 h (100 = growth as untreated, 0 = no growth, -100 = all killed); settings: 10 µM unless noted
The panel holds about 83,000 compounds, 20% with a hit somewhere; the sample as a whole holds those more often. Activity calls are given as the source filed them. How the source made its calls: active means growth percent below 10; inactive means the rest.
Parameter growth: see the listing below.

Query :: Output growth of `Nc1cc2c(cc1N)-c1cc(N)c(N)cc1C2`
Result :: 110% (inactive)

Query :: Kindly indicate its recorded growth. Item: `Cc1oc2ncnc(Nc3ccccc3)c2c1C(=O)NCCO`
Result :: 99.4% (inactive)

Query :: Check the records and state growth for `COc1ccc(/C(=N\O)c2cc(OC)c(OC)c(OC)c2)c(OC)c1N`
Result :: 45.1% (inactive)

Query :: State its growth for this compound: C=CCOc1ccc(/C(O)=C2\C(=O)C(=O)N(c3nccs3)C2c2ccccc2F)cc1 (stereo unspecified)
Result :: 100% (inactive)

Query :: Kindly indicate its recorded growth. Item: `COC(=O)CC/C(C)=N\Nc1ccc([N+](=O)[O-])cc1`
Result :: 42% (inactive)

Query :: Tell us which growth value is on record for `COc1ccc(/C=C/c2cc(N3CCOCC3)c3cc(F)c(F)cc3n2)cc1OC`
Result :: 37.9% (inactive)

Query :: // Input: `O=C(/C=C/CN1CCOCC1)Nc1cc2c(Nc3ccc(F)c(Cl)c3F)ncnc2cc1OCCOC(F)F` . Output its growth only.
Result :: 1.51% (active)

Query :: Query growth for `O=[N+]([O-])c1cccc(-c2cc(-c3cc(Br)ccc3O)[nH]n2)c1`
Result :: 21.1% (inactive)

Query :: Supply measured growth of `COc1cc(NC(=O)CCl)ccc(=O)c1` in your reply.
Result :: 67.1% (inactive)

Query :: // fetch growth given entry `CN(C)C/C=C/C(=O)Nc1cc2c(Nc3ccc(F)c(Cl)c3F)ncnc2cc1OCCOC(F)F`
Result :: -1.23% (active)

Query :: Item `O=C1CCCCC=C1C[N+](=O)[O-]` : provide growth
Result :: 70.3% (inactive)
